Every entry's value here was drawn from PubChem BioAssay (NCI).

# protocol: NCI Yeast Anticancer Drug Screen. Data for the bub3 strain (AID 167)
# experimental-setup: S. cerevisiae bub3 mutant strain, at 5.0 µM (retest, dose inferred, filed as 0.5)
The panel holds about 79,000 compounds, 15% with a hit somewhere; the sample as a whole holds those more often. Active and inactive are the calls of the source. Cut-off read from the data, not from the text of the source: active = growth inhibition above about 70%; inactive = the rest.
// allowed return values: Y (active), N (inactive)

Hi, sorry to bother you, what did the test record for O=[N+]([O-])c1ccc(S)c(Cl)c1 ?
N

Hi, sorry to bother you, what did the test record for COc1ccc(N=C2C(=S)N(c3ccc(OC)cc3)/C(=N/S(=O)(=O)c3ccccc3)N2c2ccccc2)cc1 ?
N

Hi, sorry to bother you, what did the test record for O=C1CC(c2ccccc2)c2c(ccc3ccccc23)O1 (stereo unspecified) ?
N

Hi, sorry to bother you, what did the test record for Cc1cc(Cl)cc2c1OCN(C)C2 ?
N

Hi, sorry to bother you, what did the test record for O=c1oc2ccccc2c(O)c1/C=N/C(=S)Nc1ccccc1 ?
N

Hi, sorry to bother you, what did the test record for COc1ccc(C2Oc3ccc(Cl)cc3C=C2[N+](=O)[O-])cc1 (stereo unspecified) ?
Y

Hi, sorry to bother you, what did the test record for Cc1cccc(NC(=O)Oc2ccc(Cl)c3cccnc23)c1 ?
Y

Hi, sorry to bother you, what did the test record for CC(=O)c1c(O)c2ccc(Cl)cc2[nH]c1=O ?
Y

Hi, sorry to bother you, what did the test record for O=C1c2ccccc2C(=O)N1C(=NCc1ccccc1)c1ccccc1 ?
N

Hi, sorry to bother you, what did the test record for c1ccc2c(Nc3ccc(Oc4ccc(Nc5c6ccccc6nc6ccccc56)cc4)cc3)c3ccccc3nc2c1 ?
N

Hi, sorry to bother you, what did the test record for O/N=C1/C(=C/c2ccc3c(c2)OCO3)CCCC1C(NO)c1ccc2c(c1)OCO2 (stereo unspecified) ?
N
